# protocolDescription: Dog PK study #4 (Compound A PO daily 14 days, 1/3/10 mg/kg; toxicokinetics, platelet counts)
# Assay type: in vivo, beagle dogs
# recordedConditions: beagle, dog, plasma, oral; after daily administration for 14 days, 10 mg/kg, Male, 24 h
measurementType: concentration at 24 h

smilesrecord=Cn1cc(-c2ccccc2)c(-c2cn(C)c(=O)c3[nH]c(-c4cnn(C(F)(F)F)c4)cc23)cc1=O result="145 ng/mL"

* * *

# protocolDescription: Rat PK study #2 (Compound A PO 5 mg/kg, DMSO/PEG-400/water)
# Type: in vivo, SD rats
# recordedConditions: male, Sprague-Dawley, rat, plasma, po, 5 mg/kg, SD rats, PO 5 mg/kg, DMSO/PEG-400/Milli-Q water formulation, 0.25 h, mean of 3 animals
measurementType: concentration at 0.25 h (ng/mL)

smilesrecord=Cn1cc(-c2ccccc2)c(-c2cn(C)c(=O)c3[nH]c(-c4cnn(C(F)(F)F)c4)cc23)cc1=O quantitativereadout=8.5

* * *

# protocolDescription: Dog PK study #3 (Compound A PO once daily 5 days, 5/10/20 mg/kg; PK, body weight, hematology)
# Type: in vivo, beagle dogs
# recordedConditions: male, beagle, dog, plasma, po, 10 mg/kg, Day 5, 10 mg/kg dose PO; mean; read-out: MRT0-last
measurementType: MRT last (h)

smilesrecord=Cn1cc(-c2ccccc2)c(-c2cn(C)c(=O)c3[nH]c(-c4cnn(C(F)(F)F)c4)cc23)cc1=O measurementtype="MRT last" quantitativereadout=8.95

* * *

# protocolDescription: Rat PK study #1 (Compound A PO, methylcellulose vs propylene glycol formulation)
# Assay type: in vivo, Lewis rats
# recordedConditions: male, Lewis, rat, plasma, po, 10 mg/kg, Lewis rats, PO 10 mg/kg, 1% methylcellulose formulation, 0.5 h, mean of 3 animals
measurementType: concentration at 0.5 h (ng/mL)

smilesrecord=Cn1cc(-c2ccccc2)c(-c2cn(C)c(=O)c3[nH]c(-c4cnn(C(F)(F)F)c4)cc23)cc1=O measurementtype="concentration at 0.5 h" quantitativereadout=5.37

* * *

# protocolDescription: CIA study: pharmacokinetics / plasma concentration after oral administration
# Assay type: in vivo, Lewis rats
# recordedConditions: Lewis, rat, plasma, po, 3 mg/kg, oral 3 mg/kg, day 0, time 8; read-out: Mean Concentration (average plasma concentration)
measurementType: concentration at 8 h (ng/mL)

smilesrecord=Cn1cc(-c2ccccc2)c(-c2cn(C)c(=O)c3[nH]c(-c4cnn(C(F)(F)F)c4)cc23)cc1=O measurementtype="concentration at 8 h" quantitativereadout=90

* * *

# protocolDescription: CIA study: pharmacokinetics / plasma concentration after oral administration
# Type: in vivo, Lewis rats
# recordedConditions: Lewis, rat, plasma, po; CIA-induced animals, day 21, 3 mg/kg, average; read-out: AUClnf (Mean)
measurementType: AUC (ng·h/mL)

compound="Cn1cc(-c2ccccc2)c(-c2cn(C)c(=O)c3[nH]c(-c4cnn(C(F)(F)F)c4)cc23)cc1=O [Compound A]" measurementtype=AUC endpointunit=ng·h/mL quantitativereadout=904

* * *

# studySystem: BRD4 BD2 (Homo sapiens, UniProt O60885)
# Construct: HEK293 cells were transfected using NanoLuc-BRD4-BD1 or NanoLuc-BRD4-BD2 fusion vectors
# protocolDescription: NanoBRET bromodomain assay, NanoLuc-BRD4-BD2 in HEK293 cells
pIC50: −log10 of the molar value.
measurementType: pIC50

compound="Cn1cc(-c2cc(=O)n(C3CC(O)C3)cc2-c2ccccc2)c2cc(-c3cnn(C(F)(F)F)c3)[nH]c2c1=O (stereo not shown)" measurementtype=pIC50 result="6.70 to 7.30"
compound=Cc1nn(C2COC2)cc1-c1cc2c(-c3cc(=O)n(C)cc3-c3ccccc3)cn(C)c(=O)c2[nH]1 measurementtype=pIC50 result="7.30 to 8.00"
compound=Cn1cc(-c2ccccc2)c(-c2cn(C)c(=O)c3[nH]c(-c4ccc(F)cc4F)cc23)cc1=O measurementtype=pIC50 result="> 8.00"
compound=Cn1cc(-c2cc(=O)n(C3CC3)cc2-c2ccccc2)c2cc(-c3cccc(F)c3F)[nH]c2c1=O measurementtype=pIC50 result="> 8.00"
compound=Cn1cc(-c2ccccc2)c(-c2cn(C)c(=O)c3[nH]c(-c4cccc(S(C)(=O)=O)c4)cc23)cc1=O measurementtype=pIC50 result="> 8.00"
compound=Cc1cccc(C)c1Oc1cn(C)c(=O)cc1-c1cn(C)c(=O)c2[nH]c(-c3cccc(C(F)(F)F)c3F)cc12 measurementtype=pIC50 result="6.70 to 7.30"
compound=COCCOc1ccc(-c2cn(C)c(=O)cc2-c2cn(C)c(=O)c3[nH]c(-c4cnn(C(F)(F)F)c4)cc23)cc1 measurementtype=pIC50 result="> 8.00"

* * *

# protocolDescription: Rat PK study #4 (Compound A PO 0.2 and 1.0 mg/kg, propylene glycol formulation)
# Assay type: in vivo, Lewis rats
# recordedConditions: male, Lewis, rat, plasma, po, 0.2 mg/kg, 0.2 mg/kg PO, propylene glycol-based formulation; mean; read-out: Cmax
measurementType: Cmax (ng/mL)

smilesrecord=Cn1cc(-c2ccccc2)c(-c2cn(C)c(=O)c3[nH]c(-c4cnn(C(F)(F)F)c4)cc23)cc1=O quantitativereadout=7.16

* * *

# studySystem: BRD4 BD1 (Homo sapiens)
# Construct: HEK293 cells were transfected using NanoLuc-BRD4-BD1 or NanoLuc-BRD4-BD2 fusion vectors
# protocolDescription: NanoBRET bromodomain assay, NanoLuc-BRD4-BD1 in HEK293 cells
pIC50: −log10 of the molar value.
measurementType: pIC50

compound="Cn1cc(-c2ccc(COC(F)(F)F)cc2)c(-c2cn(C)c(=O)c3[nH]c(-c4cnn(C(F)(F)F)c4)cc23)cc1=O [Example 18]" studysystem="BRD4 BD1 (Homo sapiens)" measurementtype=pIC50 result="< 6.00"
compound="Cn1cc(-c2cccc(CS(C)(=O)=O)c2)c(-c2cn(C)c(=O)c3[nH]c(-c4cnn(C(F)(F)F)c4)cc23)cc1=O [Example 2]" studysystem="BRD4 BD1 (Homo sapiens)" measurementtype=pIC50 result="< 6.00"
compound="Cn1cc(-c2ccccc2)c(-c2cn(C)c(=O)c3[nH]c(-c4ccc(C5COC5)cc4)cc23)cc1=O [Example 44]" studysystem="BRD4 BD1 (Homo sapiens)" measurementtype=pIC50 result="< 6.00"
compound="Cn1cc(-c2ccccc2)c(-c2cn(C)c(=O)c3[nH]c(-c4ccccc4F)cc23)cc1=O [Example 42]" studysystem="BRD4 BD1 (Homo sapiens)" measurementtype=pIC50 result="< 6.00"
compound="Cn1cc(-c2cc(=O)n(CCOC(F)F)cc2-c2ccccc2)c2cc(-c3cnn(C(F)(F)F)c3)[nH]c2c1=O [Example 22]" studysystem="BRD4 BD1 (Homo sapiens)" measurementtype=pIC50 result="< 6.00"
compound="Cn1cc(-c2cc(=O)n(CCN3CCOCC3)cc2-c2ccccc2)c2cc(-c3cnn(C(F)(F)F)c3)[nH]c2c1=O [Example 62]" studysystem="BRD4 BD1 (Homo sapiens)" measurementtype=pIC50 result="< 6.00"
compound="Cn1ccc(-c2cc3c(-c4cc(=O)n(C)cc4-c4ccccc4)cn(C)c(=O)c3[nH]2)cc1=O [Example 81]" studysystem="BRD4 BD1 (Homo sapiens)" measurementtype=pIC50 result="< 6.00"

* * *

# protocolDescription: Rat PK study #1 (Compound A PO, methylcellulose vs propylene glycol formulation)
# Format: in vivo, Lewis rats
# recordedConditions: male, Lewis, rat, plasma, po, 10 mg/kg, Lewis rats, PO 10 mg/kg, propylene glycol/Vitamin E TPGS/water formulation, 24 h, individual animals
measurementType: concentration at 24 h (ng/mL)

molecule="Cn1cc(-c2ccccc2)c(-c2cn(C)c(=O)c3[nH]c(-c4cnn(C(F)(F)F)c4)cc23)cc1=O [Compound A]" quantitativereadout=13.1

* * *

# protocolDescription: Dog PK study #3 (Compound A PO once daily 5 days, 5/10/20 mg/kg; PK, body weight, hematology)
# Type: in vivo, beagle dogs
# recordedConditions: male, beagle, dog, plasma, po, 5 mg/kg, Day 5, 5 mg/kg dose PO; mean; read-out: AUC0-inf
measurementType: AUC(0-inf) (ng·h/mL)

smilesrecord=Cn1cc(-c2ccccc2)c(-c2cn(C)c(=O)c3[nH]c(-c4cnn(C(F)(F)F)c4)cc23)cc1=O endpointunit=ng·h/mL quantitativereadout=18900

* * *

# protocolDescription: CIA study: pharmacokinetics / plasma concentration after oral administration
# Type: in vivo, Lewis rats
# recordedConditions: Lewis, rat, plasma, oral, 1 mg/kg, Day 21, CIA rats, 1 mg/kg; read-out: Plasma Concentration
measurementType: concentration at 21 day (ng/mL)

smilesrecord=Cn1cc(-c2ccccc2)c(-c2cn(C)c(=O)c3[nH]c(-c4cnn(C(F)(F)F)c4)cc23)cc1=O measurementtype="concentration at 21 day" endpointunit=ng/mL quantitativereadout=13

Reference source: patent US20260217701A1
